# solubility kinetic annotations
measurementConditions: buffer; pH 7.4; 200.0 µM

The following molecules have reported results that may help.
> print(dat)
                                inputsmiles        result
1  CCCCCCn1c(N2CCCC2)nc2c1c(=O)[nH]c(=O)n2C  > 47.9 µg/mL
2       O=C(O)C1CCN(C(=O)c2cccc3ccccc23)CC1  > 42.5 µg/mL
3           COc1ccc(Cn2c(=O)oc3ccccc32)cc1F     1.1 µg/mL
4  C=CCNc1nc(C(=O)OCC(=O)Nc2ccccc2C(F)(F)F)cs1    26.9 µg/mL
5  COc1ccc(CNC(=O)c2cc(=O)c3cc(C)c(C)cc3o2)cc1   < 0.7 µg/mL

Please find the next molecule below.
Input `COc1ccc(CC(=O)Nc2nccs2)cc1S(=O)(=O)N1CCOCC1` . Output solubility kinetic: > 59.6 µg/mL

----------
measurementConditions: buffer; pH 7.4; 200.0 µM
measurementName: solubility kinetic (µg/mL)
Please state the figure in µg/mL; there is no need to write the unit.

The following compounds have reported results that may help.
> print(dat)
                                inputsmiles     measurementname  displayunit  measurednumber
1         O=C(Nc1ccc(Cl)cc1Cl)c1ccc2ncsc2c1  solubility kinetic        µg/mL             0.4
2  COC(=O)c1[nH]c2ccccc2c1NC(=O)c1c(F)cccc1F  solubility kinetic        µg/mL             1.1
3   Cc1ccc(S(=O)(=O)N(C)CC(=O)Nc2cccnc2)cc1  solubility kinetic        µg/mL            41.5

Please find the next compound below.
Input `O=C(c1ccccc1Cl)N1CCSCC1` . Output solubility kinetic: 31.7

----------
measurementConditions: buffer; pH 7.4; 200.0 µM
# solubility kinetic annotations

The following compounds have reported results that may help.
> print(dat)
                                   compound     measurementname      result
1  Cc1cc(C(=O)OC(C)C(=O)NC2CCCCC2)c(C)o1 (stereo not given)  solubility kinetic  15.7 µg/mL
2   CCCCn1c(O)c(/C=C2/C=CC=N2)c(=O)[nH]c1=O  solubility kinetic   5.1 µg/mL

Input `O=C(COC(=O)c1cc[n+]([O-])cc1)NCc1ccccc1Cl` . Output solubility kinetic: > 48.1 µg/mL

Input `O=C(CSc1nccn1-c1cccc(F)c1)NC1CCCC1` . Output solubility kinetic: > 47.9 µg/mL

Input `CCCNC(=O)N1CCC(c2ccc3c(c2)OCO3)CC1` . Output solubility kinetic: 38.8 µg/mL

Input `O=C(CCNC(=O)c1ccccc1)Nc1ccc(S(=O)(=O)Nc2ncccn2)cc1` . Output solubility kinetic: > 63.8 µg/mL

Input `Cc1c(Cl)cccc1NS(=O)(=O)c1cccc2nsnc12` . Output solubility kinetic: > 51 µg/mL

Input `O=C(NCCc1ccccc1F)c1cccc2cccnc12` . Output solubility kinetic: 31.4 µg/mL

Input `COCCSc1ccccc1C(=O)Nc1ccccc1C(C)C` . Output solubility kinetic: 48.9 µg/mL

Input `O=C(OCc1cccc([N+](=O)[O-])c1)c1cccnc1Cl` . Output solubility kinetic: 5.4 µg/mL

Input `Br.Nc1ncc([N+](=O)[O-])cc1Br` . Output solubility kinetic: > 44.8 µg/mL

Input `Cc1cc(C)c(NC(=O)Nc2ccccc2C)c(Cl)c1` . Output solubility kinetic: 0.8 µg/mL

Input `Nc1cccc(C(=O)Nc2cccc3ncccc23)c1` . Output solubility kinetic: > 39.5 µg/mL

Input `CC1CCN(C(=O)CC#N)CC1` . Output solubility kinetic: > 24.9 µg/mL

Input CN(C)CCCNC(NC(=O)/C=C/c1ccccc1)C(Cl)(Cl)Cl (stereo not given) . Output solubility kinetic: 44.3 µg/mL

Input `CN1CCN(C(=O)CCC(=O)NCc2ccc(F)cc2)CC1` . Output solubility kinetic: 45.7 µg/mL

Input CCOC(=O)c1c(C)oc2c1c(C=NC1CCS(=O)(=O)C1)c(O)c1ccccc12 (stereo not given) . Output solubility kinetic: < 0.9 µg/mL

Input `N#Cc1ccccc1NC(=S)NC(=O)c1cccs1` . Output solubility kinetic: 30.7 µg/mL

----------
measurementConditions: buffer; pH 7.4; 200.0 µM
measurementName: log10 of solubility kinetic (log10 of the value in µg/mL)
Values reflect log10 of reported solubility kinetic (µg/mL).

The following compounds have reported results that may help.
> print(dat)
                                   compound  measurednumber
1  Cc1cccn2c(NC(=O)c3ccccc3F)c(-c3ccccc3)nc12            0.41
2  COc1cc2c(cc1OC)C(C)N(C(=O)c1cc3c(C)cc(C)cc3[nH]1)CC2 (stereo unspecified)            0.67
3  CN1CCN(c2oc(-c3ccccc3)nc2S(=O)(=O)c2ccccc2)CC1            0.15

Input `O=C(NCc1ccccc1)c1cccnc1Sc1ccccc1` . Output log10 of solubility kinetic: 1.03

Input `CC1(C)CC(NC(=O)N2c3ccccc3Sc3ccccc32)CC(C)(C)N1` . Output log10 of solubility kinetic: 1.63

Input `COc1ccc(OCCN2CCOCC2)cc1` . Output log10 of solubility kinetic: 1.49

Input `C#CCN1C(=O)S/C(=C\c2ccc(-c3ccc(C(=O)O)cc3C)o2)C1=O` . Output log10 of solubility kinetic: 1.54

Input `COc1ccc(S(=O)(=O)N2CCCCC2)cc1NC(=O)Cn1cnc2c1c(=O)n(C)c(=O)n2C` . Output log10 of solubility kinetic: 1.45

Input `CCN1C(=O)N(CC)c2cccc3cccc1c23` . Output log10 of solubility kinetic: 0.20

----------
measurementConditions: buffer; pH 7.4; 200.0 µM
Output Met for solubility kinetic not less than 30 µg/mL; output Not met otherwise.

> print(dat)
                                    compound    label
 1         CC(=O)Nc1ccc2nc(-c3ccco3)[nH]c2c1      Met
 2  Cc1ccc(CCNC(=O)C2CCCN(S(C)(=O)=O)C2)cc1 (centres undefined)      Met
 3  CS(=O)(=O)N(CC(=O)Nc1c(F)cccc1F)Cc1ccccc1      Met
 4  Cc1noc(C)c1C(=O)OCC(=O)C12CC3CC(CC(C3)C1)C2  Not met
 5  COC(=O)[C@H](Cc1ccccc1)NC(=O)c1ccc2ccccc2n1  Not met
 6          O=C(Nc1ccc(F)cc1)c1cc2c(s1)CCCC2  Not met
 7  O=C(O)CSCC(=O)N1CCN(Cc2ccc3c(c2)OCO3)CC1      Met
 8            COc1cccc(-c2nc(CCl)cs2)c1OC.Cl      Met
 9  Cc1ccc(NC(=O)C2CC(O)CN2C(=O)OCc2ccccc2)c(C)c1 (centres undefined)      Met
10  COc1cc(C(=O)OCC(C)=O)c([N+](=O)[O-])cc1OC      Met

Query block: Assess whether reported solubility kinetic for `C=CCOc1cccc(/C=C/c2nc3ccccc3c(=O)[nH]2)c1` sits at 30 µg/mL or higher.
Result block: Met

Query block: Assess whether reported solubility kinetic for `O=c1[nH]cnc2cc(-c3ccc(Br)cc3)sc12` sits at 30 µg/mL or higher.
Result block: Not met

Query block: Assess whether reported solubility kinetic for O=C1C2C3CCC(O3)C2C(=O)N1c1cccc(F)c1 (centres undefined) sits at 30 µg/mL or higher.
Result block: Met

Query block: Assess whether reported solubility kinetic for `CC(C)(C)NC(=O)N1CCN(c2nc3ccc(Cl)cc3s2)CC1` sits at 30 µg/mL or higher.
Result block: Not met

Query block: Assess whether reported solubility kinetic for `COc1ccc(CNC(=O)c2ccc3ccccc3n2)cc1` sits at 30 µg/mL or higher.
Result block: Not met

----------
measurementConditions: buffer; pH 7.4; 200.0 µM
Output rule met for solubility kinetic not less than 0.03 mg/mL; output rule not met otherwise.

> print(dat)
                                   compound         label
1         COc1ccc(OC)c(-n2c(C)cc(C=O)c2C)c1      rule met
2  O=C(c1ccccc1)c1cc2c(cc1[N+](=O)[O-])OCCO2  rule not met
3  CN(Cc1ccccc1)S(=O)(=O)c1ccc(NC(=O)c2ccccc2C(=O)O)cc1      rule met
4  CC1CCN(CC(O)COc2ccc(C(=O)c3ccccc3)cc2)CC1 (stereo not given)      rule met
5          CSCCC(=O)N1CCN(CC(=O)N2CCCC2)CC1      rule met

Query block: Assess whether reported solubility kinetic for `CCN(Cc1ccccc1)Cc1nc(CCc2ccccc2)no1` sits at 0.03 mg/mL or higher.
Result block: rule not met

Query block: Assess whether reported solubility kinetic for `O=C1CN(C(=O)COC(=O)Cc2ccccc2F)c2ccccc2N1` sits at 0.03 mg/mL or higher.
Result block: rule met

Query block: Assess whether reported solubility kinetic for O=C(C1CCCO1)N(c1ccc(F)cc1)C1C=CS(=O)(=O)C1 (stereo not given) sits at 0.03 mg/mL or higher.
Result block: rule met

Origin of the recorded values: PubChem BioAssay AID1996
